- assay.notes: In vivo pharmacokinetic studies in mice
- Parameters: species or system mouse
- protocol.conditions: mouse, in vivo, po, 10 mg/kg
property.name: bioavailability

Endpoint output: bioavailability of Cc1nc2ccc3c(=O)cc(-c4ccc(N5CCCC5)cc4)oc3c2[nH]1 [compound o] . Value? ~2%

====

- assay.notes: In vivo pharmacokinetic studies in mice
- Design: species or system mouse
- protocol.conditions: C57BL/6, mouse, in vivo, 3 mg/kg
property.name: half-life

Endpoint output: half-life of Cc1nc2ccc3c(=O)cc(-c4ccc(N5CCCC5)cc4)oc3c2[nH]1 [compound o] . Value? ~1.72 h

====

- assay.notes: In vivo pharmacokinetic studies in mice
- Design: species or system mouse
- protocol.conditions: mouse, in vivo, 3 mg/kg
property.name: AUC(0-t)

Endpoint output: AUC(0-t) of Cc1nc2ccc3c(=O)cc(-c4ccc(N5CCCC5)cc4)oc3c2[nH]1 [compound o] . Value? ~312 ng·h/mL
